Target: T1, RA peptide (XAKLDEESILKQK-FITC, X = R)
T1 construct: also called peptide with N-terminal arginine
T1 peptide: RAKLDEESILKQK(FITC)
Assay: fluorescence polarization titration, 20 C
No end group written: not given here. *: point of attachment. FITC = O=C1OC2(c3ccc(O)cc3Oc3cc(O)ccc32)c2ccc(NC(=S)*)cc21
Rule: Kd below 300 nM gives Met, anything at or above gives Not met.

As a guide, the following entries are already answered.
{"columns": ["binder", "discrete_label"],
 "data": [
  ["PS1103 (designed binder, Variant of PS621) MHSKFSHAGRICGAKFKVGEPIYRCKECSFDYTCVLCVNCFNPKDHTGHHVYTTICTEFNNGICDCGDKEAWNHTLFCKAEEG", "Not met"],
  ["PS621 (other, tag of the assay construct not specified; also called UBR protein from Kluyveromyces marxianus) MHSKFSHAGRICGAKFKVGEPIYRCKECSFDDTCVLCVNCFNPKDHTGHHVYTTICTEFNNGICDCGDKEAWNHTLFCKAEEG", "Not met"],
  ["PS1104 (designed binder, PS621 variant) MHSKFSHAGRICGAKFKVGEPIYRCKECSFDDTCVLCVNCFNPKDHRGHHVYTTICTEFNNGICDCGDKEAWNHTLFCKAEEG", "Met"],
  ["PS1118 (designed binder, Variant of PS621) MHSKFSHAGRICGAKFKVGEPIYRCKECSFDDTCVLCVNCFNPKDHTGHHVYTTICTKFNNGICDCGDKEAWNHTLFCKAEEG", "Met"],
  ["PS1101 (designed binder, Variant of PS621) MHSKFSHAGRICGAKFKVREPIYRCKECSFDDTCVLCVNCFNPKDHTGHHVYTTICTEFNNGICDCGDKEAWNHTLFCKAEEG", "Not met"]
]}

Prompt: Item PS1121 (designed binder, PS621 variant) MHSKFSHAGRICGAKFKVGEPIYRCKECSFDDTCVLCVNCFNPKDHKGHHVYTTICTEFNNGICDCGDKEAWNHTLFCKAEEG : Kd beneath 300 nM, strictly?
Completion: Met

Prompt: Item PS1102 (designed binder, Variant of PS621) MHSKFSHAGRICGAKFKVGEPIYRCKECQFDDTCVLCVNCFNPKDHTGHHVYTTICTEFNNGICDCGDKEAWNHTLFCKAEEG : Kd beneath 300 nM, strictly?
Completion: Not met

Prompt: Item PS1106 (designed binder, PS621 variant) MHSKFSHAGRICGAKFKVGEPIYRCKECSFDDTCVLCVNCFNPKDHTGHHVYVTICTEFNNGICDCGDKEAWNHTLFCKAEEG : Kd beneath 300 nM, strictly?
Completion: Met

Prompt: Item PS1122 (designed binder, PS621 with T47L, I63E, E70T; on chip labeled with streptavidin-tetraCy3) MHSKFSHAGRICGAKFKVGEPIYRCKECSFDDTCVLCVNCFNPKDHLGHHVYTTICTEFNNGECDCGDKTAWNHTLFCKAEEG : Kd beneath 300 nM, strictly?
Completion: Met

Prompt: Item PS1115 (designed binder, PS621 variant) MHSKFSHAGRICGAKFKVGEPIYRCKECSFDDTCVLCVNCFNPKDHRGHHVYTTICTERNNGICDCGDKEAWNHELFCKAEEG : Kd beneath 300 nM, strictly?
Completion: Met

Prompt: Item PS1114 (designed binder, PS621 variant) MHSKFSHAGRICGAKFKVGEPIYRCKECSFDDTCVLCVNCFNPKDHRGHHVYTTICTERNNGICDCGDKEAWNHTLFCKAEEG : Kd beneath 300 nM, strictly?
Completion: Met

Prompt: Item PS1119 (designed binder, Variant of PS621) MHSKFSHAGRICGAKFKVGEPIYRCKECSFDDTCVLCVNCFNPKDHTGHHVYTTICKEFNNGICDCGDKEAWNHTLFCKAEEG : Kd beneath 300 nM, strictly?
Completion: Met

Data origin: patent US20240272170A1
